run_description: Assessment of coloration of deodorant or antiperspirant formulations containing perfuming ingredients with or without Haloscent D
Assay type: physicochemical
Set-up: key: CO: color; COYE: yelow color; VSCOYE: very slight yellow color; SCOYE: slight yellow color; VCOYE: very yellow color; NC: no color; DECO: decoloration; CL: cloud; VCL: very cloud; WH: white; VCOBR: very brown color; COPI: ping color
experimental_setup: AP Stick + Haloscent D 0.5 wt %, perfuming ingredient 0.5 wt %; 45° C.; after 7 days
result_type: Coloration of antiperspirant stick

>  <compound>
CC(C)=CCC/C(C)=C/CO [(E)-3,7-DIMETHYL-2,6-OCTADIEN-1-OL]

>  <measured_result>
NC

$$$$
>  <compound>
CC(C)=CCCC(C)CCO (racemic) [(+−)-3,7-DIMETHYL-6-OCTEN-1-OL]

>  <measured_result>
VSCOYE

$$$$
>  <compound>
c1ccc2[nH]ccc2c1

>  <measured_result>
VSCOYE

$$$$

Entry source: patent US12016943B2
